tested on: FLT3 (human)
assay summary: radiometric filter-binding kinase assay, Kinase HotSpot
applied conditions: compound 0.5 µM; ATP 10 µM
Returns 1 (yes) if the recorded residual activity is greater than or equal to 50%, and 0 (no) otherwise.

entry smiles: O=S(=O)(NCCNC/C=C/c1ccc(Br)cc1)c1cccc2cnccc12
tested on: FLT3 (human)
assigned label: 1 (yes)
//
entry smiles: N#CCCc1ccc2c(c1)-c1[nH]c3ccc([N+](=O)[O-])cc3c1CC(=O)N2
tested on: FLT3 (human)
assigned label: 0 (no)
//
entry smiles: COc1cc2c(Nc3ccc(Br)cc3F)ncnc2cc1OCC1CCN(C)CC1
tested on: FLT3 (human)
assigned label: 0 (no)
//
entry smiles: O=c1c2ccccc2[nH]c(=S)n1CCN1CCC(=C(c2ccc(F)cc2)c2ccc(F)cc2)CC1
tested on: FLT3 (human)
assigned label: 1 (yes)
//
entry smiles: CCOc1cc2ncnc(Nc3cccc(Br)c3)c2cc1OCC
tested on: FLT3 (human)
assigned label: 0 (no)
//
entry smiles: CCCCc1c(-c2ccc(O)cc2)[nH]c2nccnc12
tested on: FLT3 (human)
assigned label: 0 (no)

###

tested on: RAF1 (human)
assay summary: radiometric filter-binding kinase assay, Kinase HotSpot
applied conditions: compound 0.5 µM; ATP 10 µM
This listing pairs compounds with measured residual activity.

entry smiles: Nc1ncnc2c1cnn2-c1ccccc1
residual activity (%): 95.4

entry smiles: N#Cc1c(NC(=O)c2cccc3ccccc23)sc2c1CCCC2
residual activity (%): 92.9

entry smiles: COc1cc2ncnc(Nc3ccc(O)c(Br)c3)c2cc1OC
residual activity (%): 92.1

entry smiles: COc1cc2c(N3CCN(C(=O)Nc4ccc(OC(C)C)cc4)CC3)ncnc2cc1OCCCN1CCCCC1
residual activity (%): 96.7

entry smiles: O=C1NC(=O)c2c1c1c3ccccc3[nH]c1c1[nH]c3cc(Br)ccc3c21
residual activity (%): 97.8

entry smiles: c1ccc(-c2cnc(Nc3ccc(OCCN4CCCC4)cc3)s2)cc1
residual activity (%): 99

###

tested on: PRKCA (human) (UniProt P17252)
assay summary: radiometric filter-binding kinase assay, Kinase HotSpot
applied conditions: compound 0.5 µM; ATP 10 µM

entry smiles: O=S(=O)(NCCNC/C=C/c1ccc(Br)cc1)c1cccc2cnccc12
unit of measure: %
residual activity: 85.7
--
entry smiles: O=c1c2ccccc2[nH]c(=S)n1CCN1CCC(=C(c2ccc(F)cc2)c2ccc(F)cc2)CC1
unit of measure: %
residual activity: 73.1
--
entry smiles: COc1cc2c(N3CCN(C(=O)Nc4ccc(OC(C)C)cc4)CC3)ncnc2cc1OCCCN1CCCCC1
unit of measure: %
residual activity: 109
--
entry smiles: COc1cc2c(Nc3ccc(Br)cc3F)ncnc2cc1OCC1CCN(C)CC1
unit of measure: %
residual activity: 97.1
--
entry smiles: FC(F)(F)c1ccc(/C=C/c2nc(COc3ccc(CCCCn4ccnn4)cc3)co2)cc1
unit of measure: %
residual activity: 111
--
entry smiles: COc1cc2c(cc1OC)-c1[nH]nc(Nc3cccc(F)c3)c1C2
unit of measure: %
residual activity: 99.2
--
entry smiles: O=c1c(-c2ccc(F)cc2)c(-c2ccncc2)[nH]n1-c1ccc(Cl)cc1
unit of measure: %
residual activity: 100
--
entry smiles: N#Cc1c(NC(=O)c2cccc3ccccc23)sc2c1CCCC2
unit of measure: %
residual activity: 99.5
--
entry smiles: Nc1ncnc2c1cnn2-c1ccccc1
unit of measure: %
residual activity: 103
--
entry smiles: CCc1nc(-c2ccc(OC)cc2)[nH]c1-c1ccncc1
unit of measure: %
residual activity: 107
--
entry smiles: N#CCCc1ccc2c(c1)-c1[nH]c3ccc([N+](=O)[O-])cc3c1CC(=O)N2
unit of measure: %
residual activity: 80.9
--
entry smiles: N/C(=N\N=C/c1ccc(-c2cccc([N+](=O)[O-])c2)o1)N[N+](=O)[O-]
unit of measure: %
residual activity: 115
--
entry smiles: O=C(c1ccccc1)c1ccc(N2CCOCC2)cc1O
unit of measure: %
residual activity: 84.2
--
entry smiles: c1ccc(-c2cnc(Nc3ccc(OCCN4CCCC4)cc3)s2)cc1
unit of measure: %
residual activity: 106
--
entry smiles: O=C(O)c1ccc2c3c1cccc3c(=O)n1c3ccccc3nc21
unit of measure: %
residual activity: 101
--
entry smiles: O=c1cc(N2CCOCC2)oc2c(-c3ccccc3)cccc12
unit of measure: %
residual activity: 97.5
--
entry smiles: N#C/C(=C1/Nc2ccccc2S1)c1ccnc(NCCc2cccnc2)n1
unit of measure: %
residual activity: 94.3
--
entry smiles: Cn1cc(/C=C2\C(=O)Nc3ccc(S(N)(=O)=O)cc32)c2ccccc21
unit of measure: %
residual activity: 123
--
entry smiles: O=C1NC(=O)c2c1c1c3ccccc3[nH]c1c1[nH]c3cc(Br)ccc3c21
unit of measure: %
residual activity: 72.5
--
entry smiles: O=C1NC(=O)c2cc(Nc3ccc(F)cc3)c(Nc3ccc(F)cc3)cc21
unit of measure: %
residual activity: 99.3
--
entry smiles: Cc1cc(Nc2nc(-c3ccccc3)nc3ccccc23)n[nH]1
unit of measure: %
residual activity: 92.2
--
entry smiles: COc1cc2ncnc(Nc3ccc(O)c(Br)c3)c2cc1OC
unit of measure: %
residual activity: 109
